Listing of recorded GLUR EC50 (nM), cAMP formation in HEK293 cells expressing human Glucagon-R by entry.
- system.tested: human glucagon receptor (human, UniProt P47871 26-477)
- assay.remarks: cell-based or functional assay
Square brackets hold non-standard residues; d marks the D form. Ends that are not written are not given here.
Quick note: give the figure in nM, leave out the unit.

// known answers, use as guide
>>> reported_result("H-HSQGTFTSDYSKYLDSKAAHDFVEWLLRA-OH [L006-0296]")
0.12
>>> reported_result("H[dS]QGTFTSDYSKYLDSKAAHDFVEWLLRA-NH2 [ZP2866]")
0.11
>>> reported_result("H-HSQGTFTSDYSKYLDSKAAHDFVKWLLRA-NH2 [L006-0212]")
1.23
>>> reported_result("H-HSQGTFTSDYSKYLDSKAAKDFVEWLLRA-NH2 [L006-0208]")
0.55

Form field GLUR EC50 (nM), cAMP formation in HEK293 cells expressing human Glucagon-R, entry H-HSQGTFTSDYSKYLDSKRAHDFVEWLLRA-NH2 [L006-0170] : 0.79

Entry H-HSQGTFTSDYSKYLDSRAAHDFVEWLLRA-NH2 [L006-0169] ; GLUR EC50 (nM), cAMP formation in HEK293 cells expressing human Glucagon-R = 152

The reported value for H-HSQGTFTSDYSKYLDSKAARDFVRWLKLA-NH2 [ZP2668] in terms of GLUR EC50 (nM), cAMP formation in HEK293 cells expressing human Glucagon-R is 0.8

Briefly, GLUR EC50 (nM), cAMP formation in HEK293 cells expressing human Glucagon-R measured for H-HSQGTFTSDYSKYLDKKAAHDFVEWLLRA-NH2 [L006-0239] : 1.05
